System: CCRF-CEM leukemia
assay-comment: NCI tumour cell line growth inhibition, 48 h
measurement-kind: TGI

Examples with their reported TGI follow.
compound	experimental-system	measurement-kind	result
Cc1ccc(S(=O)(=O)N/N=C2\CCCCC23CCC(=O)NC3)cc1 (stereo not given)	CCRF-CEM leukemia	TGI	> 100 µM
C=C(C)[C@@H]1CC[C@]2(COCCCN)CC[C@]3(C)[C@H](CC[C@@H]4[C@@](C)(CCCNCCCN)[C@H](C(=C)C)CC[C@]43C)[C@@H]12	CCRF-CEM leukemia	TGI	7.34 µM
CC1(C)N=C(N)N=C(N)N1c1ccc(CCC(=O)Nc2ccc(S(=O)(=O)F)cc2)c(Cl)c1	CCRF-CEM leukemia	TGI	> 100 µM
COc1ccc2nc3cc(Cl)ccc3c(Sc3ccc([N+](=O)[O-])cc3C)c2c1	CCRF-CEM leukemia	TGI	> 100 µM

Provide only the value of recorded TGI for O=NNc1ccc2ccccc2n1
> 100 µM

###

Test system: RXF 393 renal
assay-comment: NCI tumour cell line growth inhibition, 48 h
measurement-kind: TGI

molecule	TGI
Nc1ncc(-c2cnn(C3CCNCC3)c2)cc1-c1nc2cc(Cl)ccc2o1	2.92 µM
CCN1C(=O)/C(=C/c2c(Cl)[nH]c3cc(C)c(OC)cc23)c2ccccc21	34 µM
CC1C2CC(C(S(=O)(=O)O)C2=O)C1(C)C (stereo not drawn)	> 100 µM
Cc1nc2ccc(Br)cc2c(=O)n1-c1nnc(C(C)(C)C)s1	> 10 µM

Provide only the value of recorded TGI for O=c1[nH]c2cc(C(F)(F)F)ccc2nc1C(F)(F)F
58.2 µM

Provide only the value of recorded TGI for CC(=O)OC1OC([C@H]2c3cccc(O)c3C(=O)c3c(O)cc(C)cc32)C(O)C(O)C1O (stereo partly drawn)
0.346 µM

Provide only the value of recorded TGI for S=C(N/N=C/c1ccccn1)N1CCCCC1
3.94 µM

Provide only the value of recorded TGI for Cc1cc(C)c2c(=O)cc(-c3cccc4ccccc34)[nH]c2n1
> 37.1 µM

Provide only the value of recorded TGI for NC(=Nc1ccccc1Cl)c1ccccc1N
> 100 µM

Provide only the value of recorded TGI for CN(C)CCNC(=O)c1cccc2c(=O)c3ccccc3oc12
> 100 µM

Provide only the value of recorded TGI for CC(=O)SCCC(NC(=S)Nc1ccccc1)P(=O)(Oc1ccccc1)Oc1ccccc1 (stereo not drawn)
> 100 µM

Provide only the value of recorded TGI for C=C(CCOC)CCC1CCCCC(CN(C)C)C1=O (stereo not drawn)
> 100 µM

Provide only the value of recorded TGI for Nc1ncnc2c1ncn2C1C=C(CO)C(O)C1O (stereo not drawn)
42.8 µM

Provide only the value of recorded TGI for OC(CC1CCCCN1)c1ccc2c(c1)oc1ccccc12 (stereo not drawn)
> 100 µM

Provide only the value of recorded TGI for C=C(C)C1CC2(C)C(C)CC(O)CC2C(OC(=O)C=C(C)C)C1O (stereo not drawn)
> 100 µM

Provide only the value of recorded TGI for CC1=C2C(O)C(C(C)C(=O)N(C)C)CCC2(C)C=CC1=O (stereo not drawn)
> 100 µM

Provide only the value of recorded TGI for Cc1cccc(Cl)c1NCC(O)CN1CCN(C)CC1 (stereo not drawn)
> 100 µM

Provide only the value of recorded TGI for CCCOC(=O)N[C@H]1CCc2c(Cl)c(OC)c(OC)c(OC)c2-c2ccc(SC)c(=O)cc21
8.41 µM

###

TGI overview
Test system: MALME-3M melanoma
assay-comment: NCI tumour cell line growth inhibition, 48 h

Examples with their reported TGI follow.
molecule	TGI
Cc1ccc(S(=O)(=O)N/N=C2\CCCCC23CCC(=O)NC3)cc1 (centres undefined)	> 100 µM
O=C(Nc1cccc(O)c1)C(=O)C1C(=O)NC(=S)NC1=O	> 100 µM
O=S(=O)(C1=CC(S(=O)(=O)c2ccccc2)CN(Cc2ccccc2)C1c1cccc2ccccc12)c1ccccc1 (centres undefined)	> 69 µM

Provide only the value of recorded TGI for Nc1ncnc2c1ncn2C1C=C(CO)C(O)C1O (centres undefined)
> 100 µM

Provide only the value of recorded TGI for COC(=O)C1=C(OC(=O)/C(=C/c2ccccc2)c2ccc(Cl)cc2Cl)C(C(=O)OC)[C@@]2(O)[C@@H](C(=O)OC)[C@H](C)C[C@@H]1[C@@H]2C(=O)OC (some centres undefined)
> 100 µM

###

TGI overview
Test system: EKVX NSCLC
assay-comment: NCI tumour cell line growth inhibition, 48 h

Examples with their reported TGI follow.
compound	experimental-system	TGI
CN(C)Cc1cc(C(F)(F)F)ccc1C(O)(c1ccccc1)c1ccccc1	EKVX NSCLC	29.6 µM
COc1ccc(CC2COc3cc(OC)cc(OC)c3C2=O)cc1 (stereo not given)	EKVX NSCLC	77.8 µM
COc1ccc(Cn2c(=O)c(OC)c(C)c3cc4ccccc4cc32)cc1	EKVX NSCLC	60.3 µM
C[C@@H](C(=O)O)N1C(c2ccco2)=C(/C(C=O)=C\c2ccco2)C(=O)/C1=C\c1ccco1	EKVX NSCLC	> 100 µM
COC(=O)C1=C(OC(=O)/C(=C/c2ccccc2)c2ccc(Cl)cc2Cl)C(C(=O)OC)[C@@]2(O)[C@@H](C(=O)OC)[C@H](C)C[C@@H]1[C@@H]2C(=O)OC (stereo not given in full)	EKVX NSCLC	> 100 µM
N#CCC(=O)N/N=C1/C(=O)N(c2ccc(Cl)cc2)C(=O)C(=O)C1c1nc2ccccc2s1 (stereo not given)	EKVX NSCLC	> 100 µM
NC(N)=NS(=O)(=O)c1ccc(NNc2c3ccccc3nc3ccccc23)cc1	EKVX NSCLC	34.3 µM
O=C1CS(=O)(=O)C(c2cccc(Oc3ccccc3)c2)N1c1ccc(Cl)cc1 (stereo not given)	EKVX NSCLC	51.3 µM
Cc1cc(N(CC(C)Br)CC(C)Br)ccc1N=Nc1ccccc1C(=O)O (stereo not given)	EKVX NSCLC	21.8 µM

Here's the next entry for you.
Provide only the value of recorded TGI for COc1ccc2c(c1)NC1=C(C(=O)OC1)C2c1cc(OC)c(OC)c(OC)c1 (stereo not given)
> 100 µM

###

Tested on: OVCAR-5 ovarian
assay-comment: NCI tumour cell line growth inhibition, 48 h
measurement-kind: TGI

Examples with their reported TGI follow.
molecule	TGI
C=C(C)[C@@H]1CC[C@]2(COCCCN)CC[C@]3(C)[C@H](CC[C@@H]4[C@@](C)(CCCNCCCN)[C@H](C(=C)C)CC[C@]43C)[C@@H]12	3.12 µM
COC(=O)[C@@H]1C=C[C@H](OC2OC(COC(C)=O)C(OC(C)=O)C(OC(C)=O)C2OC(C)=O)n2c(=O)n(-c3ccccc3)c(=O)n21 (stereo not given in full)	12.6 µM

Provide only the value of recorded TGI for Nc1ncc(-c2cnn(C3CCNCC3)c2)cc1-c1nc2cc(Cl)ccc2o1
3.22 µM

Provide only the value of recorded TGI for CCCC(C)c1ccc(OCCCCCCN2CCNCC2)cc1 (stereo not given)
7.9 µM

Provide only the value of recorded TGI for COc1ccc([C@@]2(O)c3c(ccc(O)c3OC)[C@H]2OC)c(OC)c1
> 100 µM

Provide only the value of recorded TGI for CS(=O)(=O)C(C#N)c1nc2ccccc2nc1Cl (stereo not given)
> 100 µM

Provide only the value of recorded TGI for O=C(c1ccccc1)c1ccc2n[se]nc2c1
> 100 µM

Provide only the value of recorded TGI for COC1(OC)N=C(N)C2(C#N)C(c3ccccc3)NC3=C(CCC3)C12C#N (stereo not given)
> 100 µM

Provide only the value of recorded TGI for CCN1C[C@]2(C)CC[C@H](O)C34C1C(C[C@@H]32)[C@@]1(O)CC[C@H]2C[C@@H]4[C@@H]1[C@H]2O
> 100 µM

Provide only the value of recorded TGI for CC1=C2C(O)C(C(C)C(=O)N(C)C)CCC2(C)C=CC1=O (stereo not given)
> 100 µM

Provide only the value of recorded TGI for O=S(Cc1ccccc1)c1nc2ccccc2nc1-c1cccs1 (stereo not given)
31.9 µM

Provide only the value of recorded TGI for Cc1ccc2c(ccc(/C=C/c3ccc(O)c4ncccc34)[n+]2C)c1
53.3 µM

Provide only the value of recorded TGI for O=C(NN1C(=O)C(Cl)C1c1ccc(Cl)cc1)c1c(Cl)c(Cl)c(Cl)c(Cl)c1-c1nc2ccccc2[nH]1 (stereo not given)
> 100 µM

Provide only the value of recorded TGI for COc1ccc(Cn2c3c(cc(OC(C)=O)c2=O)Cc2ccccc2-3)cc1
> 50 µM

Provide only the value of recorded TGI for CCC[CH2][Sn]([CH2]CCC)([O]C(=O)CN)[O]C(=O)CN
> 100 µM

Provide only the value of recorded TGI for O=C1C=C(C2OC(CO)C(O)C2O)C(=O)N1 (stereo not given)
> 100 µM

Provide only the value of recorded TGI for COc1ccc2c(c1)CN1C(=N2)CSC1c1cccc(Br)c1 (stereo not given)
> 100 µM
